Assay: Clearance in male Sprague-Dawley rat at 2 mg/kg, iv measured up to 24 hrs by LC-MS/MS analysis
Format: ADME, organism-based
Details: in vivo
Readout Name: clearance (mL/min/kg)
Answer in mL/min/kg, number only, no unit symbol.

[in] If you can, please state the reported clearance value of O=C(Nc1cc(Cl)cc(Cl)c1)c1nc(-c2cccc(Cl)c2)cs1 .
[out] 14.7

====

Molecular target: Cytochrome P450 1B1 (Homo sapiens, UniProt Q16678)
Sequence (Q16678 whole entry): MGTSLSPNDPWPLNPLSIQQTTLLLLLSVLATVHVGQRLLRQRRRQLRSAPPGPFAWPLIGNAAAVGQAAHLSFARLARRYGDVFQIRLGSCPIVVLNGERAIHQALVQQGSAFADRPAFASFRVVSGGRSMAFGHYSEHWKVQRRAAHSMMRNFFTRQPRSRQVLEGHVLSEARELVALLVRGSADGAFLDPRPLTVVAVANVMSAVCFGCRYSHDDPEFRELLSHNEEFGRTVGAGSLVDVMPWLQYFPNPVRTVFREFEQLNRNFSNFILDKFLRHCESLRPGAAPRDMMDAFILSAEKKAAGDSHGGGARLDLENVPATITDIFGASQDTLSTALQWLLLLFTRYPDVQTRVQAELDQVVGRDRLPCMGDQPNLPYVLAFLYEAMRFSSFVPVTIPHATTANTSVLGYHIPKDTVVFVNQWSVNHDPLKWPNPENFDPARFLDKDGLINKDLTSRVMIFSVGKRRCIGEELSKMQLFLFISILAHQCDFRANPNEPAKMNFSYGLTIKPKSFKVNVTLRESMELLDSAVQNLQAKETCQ
Assay: Inhibition of human recombinant CYP1B1 using 7-ethoxyresorufin as substrate incubated under dark condition for 30 mins in presence of NADPH by EROD fluorescence assay
pIC50: −log10 of the molar value.
Class true: pIC50 at least 8. Class false: pIC50 below 8.

Example results:
[
  {
    "Structure Smiles String": "O=C(Nc1ccc(OC(F)F)cc1)c1nc(-c2ccc(Cl)cc2)cs1",
    "Assigned Category": "true"
  },
  {
    "Structure Smiles String": "O=C(Nc1cc(Cl)cc(Cl)c1)c1nc(-c2cccc(F)c2)cs1",
    "Assigned Category": "true"
  },
  {
    "Structure Smiles String": "O=C(Nc1cc(Cl)cc(Cl)c1)c1nc(-c2ccc(I)cc2)cs1",
    "Assigned Category": "false"
  },
  {
    "Structure Smiles String": "O=C(Nc1cc(Cl)cc(Cl)c1)c1nc(-c2cccc(Cl)c2)cs1",
    "Assigned Category": "true"
  },
  {
    "Structure Smiles String": "O=C(Nc1ccc(I)cc1)c1nc(-c2ccc(F)cc2)cs1",
    "Assigned Category": "true"
  },
  {
    "Structure Smiles String": "Cc1sc(C(=O)Nc2ccc(OC(F)F)cc2)nc1-c1cccc(Cl)c1",
    "Assigned Category": "true"
  }
]

[in] Does pIC50 meet or surpass 8 for O=C(Nc1ccc(OC(F)F)cc1)c1nc(-c2ccc(F)cc2)cs1 ?
[out] true

[in] Does pIC50 meet or surpass 8 for O=C(Nc1ccc(I)cc1)c1nc(-c2ccccc2)cs1 ?
[out] true

[in] Does pIC50 meet or surpass 8 for O=C(Nc1ccc(OC(F)F)cc1)c1nc(-c2ccccc2)cs1 ?
[out] true

[in] Does pIC50 meet or surpass 8 for O=C(Nc1cc(Cl)cc(Cl)c1)c1nc(-c2ccc(Cl)cc2)cs1 ?
[out] true

[in] Does pIC50 meet or surpass 8 for Cc1sc(C(=O)Nc2cc(Cl)cc(Cl)c2)nc1-c1ccc(F)cc1 ?
[out] true

[in] Does pIC50 meet or surpass 8 for COc1cc(NC(=O)c2nc(-c3ccccc3)cs2)cc(OC)c1 ?
[out] true

[in] Does pIC50 meet or surpass 8 for O=C(Nc1ccc(F)cc1)c1nc(-c2ccccc2)cs1 ?
[out] false

[in] Does pIC50 meet or surpass 8 for O=C(Nc1ccccc1)c1nc(-c2ccccc2)cs1 ?
[out] false

====

Target: CYP2C19 (Homo sapiens)
Sequence (P33261 whole entry): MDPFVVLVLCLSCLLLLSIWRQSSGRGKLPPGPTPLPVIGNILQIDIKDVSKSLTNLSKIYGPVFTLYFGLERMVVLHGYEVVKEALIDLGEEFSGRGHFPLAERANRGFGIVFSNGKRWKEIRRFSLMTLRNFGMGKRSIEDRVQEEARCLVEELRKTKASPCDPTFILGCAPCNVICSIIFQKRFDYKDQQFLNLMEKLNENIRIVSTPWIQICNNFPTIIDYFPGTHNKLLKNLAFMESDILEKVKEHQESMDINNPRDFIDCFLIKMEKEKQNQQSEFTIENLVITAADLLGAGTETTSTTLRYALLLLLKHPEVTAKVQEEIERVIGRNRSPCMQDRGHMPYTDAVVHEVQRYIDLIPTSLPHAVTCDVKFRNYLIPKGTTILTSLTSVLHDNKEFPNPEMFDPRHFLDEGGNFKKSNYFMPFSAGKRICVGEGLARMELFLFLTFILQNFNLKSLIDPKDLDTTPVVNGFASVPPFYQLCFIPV
Assay: Inhibition of CYP2C19 in human liver microsome at 3 uM pre-incubated with compound for 5 mins followed NADPH addition and measured after 30 mins by LC-MS/MS analysis relative to control
Format: ADME
Settings: liver microsomes, time 35 min
Readout Name: inhibition at 0.5 h, 3 µM (%)
Answer in %, number only, no unit symbol.

[in] If you can, please state the reported inhibition at 0.5 h, 3 µM value of CCC1(c2ccccc2)NC(=O)N(Cc2ccccc2)C1=O (stereo unspecified) .
[out] 89.8
